molecular target: Sodium channel protein type 9 subunit alpha (Homo sapiens, UniProt Q15858); experiment: cell-based
Sequence (Q15858 whole entry): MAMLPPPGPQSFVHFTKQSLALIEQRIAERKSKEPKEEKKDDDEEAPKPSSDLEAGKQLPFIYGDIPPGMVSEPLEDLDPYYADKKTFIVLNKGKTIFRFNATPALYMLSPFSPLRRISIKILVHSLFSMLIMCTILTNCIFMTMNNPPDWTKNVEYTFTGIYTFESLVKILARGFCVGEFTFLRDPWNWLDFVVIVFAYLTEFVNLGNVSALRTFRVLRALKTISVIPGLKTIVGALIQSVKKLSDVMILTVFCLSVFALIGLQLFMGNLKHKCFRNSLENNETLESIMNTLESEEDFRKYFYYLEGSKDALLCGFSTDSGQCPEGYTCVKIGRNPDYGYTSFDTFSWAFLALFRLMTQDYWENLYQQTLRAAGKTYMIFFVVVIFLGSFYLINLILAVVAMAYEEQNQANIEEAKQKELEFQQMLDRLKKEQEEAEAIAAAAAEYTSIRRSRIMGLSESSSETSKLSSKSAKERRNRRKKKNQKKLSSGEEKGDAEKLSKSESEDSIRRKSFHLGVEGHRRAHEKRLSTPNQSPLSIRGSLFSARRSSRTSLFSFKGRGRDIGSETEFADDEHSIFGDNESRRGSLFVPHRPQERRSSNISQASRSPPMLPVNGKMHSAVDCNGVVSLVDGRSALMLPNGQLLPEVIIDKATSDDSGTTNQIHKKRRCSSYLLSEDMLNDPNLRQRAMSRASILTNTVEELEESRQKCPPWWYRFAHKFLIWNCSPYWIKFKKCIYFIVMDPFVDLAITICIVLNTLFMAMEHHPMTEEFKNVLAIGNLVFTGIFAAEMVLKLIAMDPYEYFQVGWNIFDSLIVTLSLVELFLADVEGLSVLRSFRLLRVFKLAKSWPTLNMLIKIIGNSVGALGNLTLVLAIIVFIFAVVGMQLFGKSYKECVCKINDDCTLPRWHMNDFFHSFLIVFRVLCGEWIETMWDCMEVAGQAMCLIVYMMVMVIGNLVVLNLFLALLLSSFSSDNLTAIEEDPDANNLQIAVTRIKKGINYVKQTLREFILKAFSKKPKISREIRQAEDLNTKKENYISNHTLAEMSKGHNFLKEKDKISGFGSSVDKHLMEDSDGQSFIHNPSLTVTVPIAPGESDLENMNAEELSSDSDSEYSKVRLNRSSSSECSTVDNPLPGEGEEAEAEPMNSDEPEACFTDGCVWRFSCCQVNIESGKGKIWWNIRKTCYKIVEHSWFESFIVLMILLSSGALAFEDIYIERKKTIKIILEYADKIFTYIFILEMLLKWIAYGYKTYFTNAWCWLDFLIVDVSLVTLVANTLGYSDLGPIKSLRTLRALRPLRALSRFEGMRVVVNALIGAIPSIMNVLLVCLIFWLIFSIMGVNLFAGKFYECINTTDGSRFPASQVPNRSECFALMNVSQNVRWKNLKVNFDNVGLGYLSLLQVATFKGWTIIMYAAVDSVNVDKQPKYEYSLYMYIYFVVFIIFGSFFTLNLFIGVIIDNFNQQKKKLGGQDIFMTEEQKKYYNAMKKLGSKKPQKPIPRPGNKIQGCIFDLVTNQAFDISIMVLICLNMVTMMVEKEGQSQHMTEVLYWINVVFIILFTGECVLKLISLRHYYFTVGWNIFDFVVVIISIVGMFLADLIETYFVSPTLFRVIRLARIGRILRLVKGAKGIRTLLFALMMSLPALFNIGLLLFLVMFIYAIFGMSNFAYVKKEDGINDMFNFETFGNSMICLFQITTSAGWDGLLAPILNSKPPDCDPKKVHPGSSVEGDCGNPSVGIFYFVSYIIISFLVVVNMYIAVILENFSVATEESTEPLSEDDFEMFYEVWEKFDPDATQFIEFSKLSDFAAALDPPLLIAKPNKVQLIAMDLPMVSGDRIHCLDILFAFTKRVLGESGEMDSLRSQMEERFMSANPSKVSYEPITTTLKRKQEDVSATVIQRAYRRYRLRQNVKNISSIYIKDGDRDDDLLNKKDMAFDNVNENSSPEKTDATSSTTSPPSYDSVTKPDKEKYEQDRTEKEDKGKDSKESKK
experimental.readout: pIC50
In textbook form, pIC50 equals minus log to base ten of the concentration in mol/L.

Solved cases (3 shown):
N#Cc1cc(S(=O)(=O)Nc2nccs2)ccc1Oc1ccc(-c2cnn(CC(F)(F)F)c2N)cc1 : 5.00
N#Cc1cc(S(=O)(=O)Nc2nccs2)ccc1Oc1ccc(-n2cccn2)cc1C(F)(F)F : 6.00
Cc1cncnc1NS(=O)(=O)c1ccc(Oc2ccccc2-c2ccccc2)c(C#N)c1 : 5.00

Q: Enter reported pIC50 observed with Sodium channel protein type 9 subunit alpha (Homo sapiens, UniProt Q15858) for Cc1ccc(NS(=O)(=O)c2ccc(Oc3ccccc3-c3ccccc3)c(C#N)c2)nc1
Result: 5.52

Q: Consider next the compound N#Cc1cc(S(=O)(=O)Nc2nccs2)ccc1Oc1ccc(-n2cc(C(N)=O)cn2)cc1 in the same way.
Result: 6.00

Q: Consider next the compound CC(C)(C)NC(=O)c1cnn(-c2ccc(Oc3ccc(S(=O)(=O)Nc4nccs4)cc3C#N)cc2)c1 in the same way.
Result: 6.00
